Measured EC50 accompanies every entry in the list below.
# measured target: T1, Canine IL-31RA ECD-10His (canine, biotin-labeled in the Octet assay (site not stated))
# T1 construct: The ELISA and Octet protocols say only 'IL-31RA' or 'canine IL-31RA'; also called cIL-31RA; canine IL-31 receptor alpha extracellular domain, HIS-tagged
# T1 chain: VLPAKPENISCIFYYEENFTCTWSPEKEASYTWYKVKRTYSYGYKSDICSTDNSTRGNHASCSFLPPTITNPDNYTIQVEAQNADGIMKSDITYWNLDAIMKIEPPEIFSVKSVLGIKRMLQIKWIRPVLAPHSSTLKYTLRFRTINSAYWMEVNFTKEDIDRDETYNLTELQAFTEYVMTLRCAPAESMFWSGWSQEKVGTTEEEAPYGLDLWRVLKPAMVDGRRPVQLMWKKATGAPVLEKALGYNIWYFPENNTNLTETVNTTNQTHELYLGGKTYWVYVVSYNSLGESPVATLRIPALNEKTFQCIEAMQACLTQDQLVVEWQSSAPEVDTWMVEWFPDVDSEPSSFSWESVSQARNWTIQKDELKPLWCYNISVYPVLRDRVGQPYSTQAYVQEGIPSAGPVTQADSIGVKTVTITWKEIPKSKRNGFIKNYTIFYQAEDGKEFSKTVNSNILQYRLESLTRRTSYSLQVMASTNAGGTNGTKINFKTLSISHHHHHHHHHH
# experiment notes: ELISA on coated canine IL-31RA, anti-canine IgG Fc-HRP (Example 11), the unit is that of the x axis 'Ab Log Conc. (ng/mL)'

>  <binder>
c100H8VH7VL4 (antibody, V domains shown, Caninized antibody; chains tied by name to c100H8VH7-cIgGBm and c100H8VL4-cCK; also called c100H8VH7L4) VH: EVQLVQSGAEVKKPGASVKVSCKASGYTFTDYNMDWVRQAPGAGLDWIGHINPNNGGILYNQKFKGKATLTADTSTSTAYMELSSLRAGDIAVYYCARWAPLVRQPYWYFDVWGQGTLVTVSS VL: DIVMTQTPLSLSVSPGETASISCKASQDINSYLNWFRQKPGQSPQLLIYRADRLVDGVPDRFSGSGSGTDFTLRISTVEADDTGVYYCLQYDEFPLTFGAGTKVELKR

>  <result units>
ng/mL

>  <EC50>
0.581

$$$$
>  <binder>
c218D9VH4VL2 (antibody, V domains shown, Caninized antibody; chains tied by name to c218D9VH4-cIgGBm and c218D9VL2-cCK; also called c218D9VH4L2) VH: EVTLQESGPGLVKPSQTLSLTCSFSGFSLSTFGRGVGWIRQRPGRGLEWMGHIWWDDDKYYNPALKSRLSITKDTAKNQVFLQLSSMTTEDTAVYYCARIAGGLRRAPYAMDSWGQGTLVTVSS VL: DIVMTQTPLSLSVSPGETASISCRASENIYSSLAWFRQKPGQSPQLLIYAATNLADGVPDRFSGSGSGTDFTLRISRVEADDTGVYYCQHFRDTPPTFGQGTKLEIKR

>  <result units>
ng/mL

>  <EC50>
4.1

$$$$
>  <binder>
Chimeric 100H8 (antibody, V domains shown, also called murine-canine chimeric 100H8) VH: EVQLQQSGPELVKPGASVKIPCKASGYTFTDYNMDWVKQSHGKSLEWIGHINPNNGGILYNQKFKGKATLTVDRSSNTAYMELRSLTSEDTAVYFCARWAPLVRQPYWYFDVWGTGTTVTVSS VL: DIKMTQSPSSIFASLGERVTITCKASQDINSYLNWFQQKPGKSPKTLIYRADRLVDGVPSRFSGSGSGQDYSLTISSLEYEDMGIYYCLQYDEFPLTFGAGTKLELN

>  <result units>
ng/mL

>  <EC50>
2.02

$$$$
